- TGT: Coagulation factor X (Homo sapiens, UniProt P00742)
- Sequence (P00742 41-179 limits assumed): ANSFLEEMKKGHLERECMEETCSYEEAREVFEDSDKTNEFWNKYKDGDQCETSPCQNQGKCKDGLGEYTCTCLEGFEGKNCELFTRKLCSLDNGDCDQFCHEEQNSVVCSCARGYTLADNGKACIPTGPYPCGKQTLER
- Sequence (P00742 235-488 limits assumed): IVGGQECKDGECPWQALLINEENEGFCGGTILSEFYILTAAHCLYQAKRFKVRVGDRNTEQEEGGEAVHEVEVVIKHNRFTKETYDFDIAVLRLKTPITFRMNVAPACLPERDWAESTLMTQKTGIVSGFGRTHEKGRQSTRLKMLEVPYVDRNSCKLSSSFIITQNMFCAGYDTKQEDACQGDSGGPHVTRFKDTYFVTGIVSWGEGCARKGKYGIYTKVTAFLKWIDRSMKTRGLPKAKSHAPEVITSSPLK
MEASURED_PARAMETER: IC50

Q: So what does the record say about IC50 for CC(C)Nc1nc(Cl)c(-c2cc(N)cc(C(=O)O)c2)n(CC(=O)NCc2ccc(C(=N)N)cc2)c1=O ?
Ans: > 100 µM

Cited source: ChEMBL document CHEMBL1136103
